test description: Pharmacokinetic study in ICR mice (i.v. and p.o.)
Type: in vivo
condition set: male, mouse, iv, i.v. at 5 mg/kg, plasma
measure: half-life (min)
Report the value in min with no unit label.

Record "CCCCCOCCCCCNNC(=O)c1ccc(CNC(=O)c2ccccc2)cc1" , field half-life: 228

###

target or system: HDAC5 (Homo sapiens, UniProt Q9UQL6)
Construct: purchased BPS Bioscience
Sequence (Q9UQL6 whole entry): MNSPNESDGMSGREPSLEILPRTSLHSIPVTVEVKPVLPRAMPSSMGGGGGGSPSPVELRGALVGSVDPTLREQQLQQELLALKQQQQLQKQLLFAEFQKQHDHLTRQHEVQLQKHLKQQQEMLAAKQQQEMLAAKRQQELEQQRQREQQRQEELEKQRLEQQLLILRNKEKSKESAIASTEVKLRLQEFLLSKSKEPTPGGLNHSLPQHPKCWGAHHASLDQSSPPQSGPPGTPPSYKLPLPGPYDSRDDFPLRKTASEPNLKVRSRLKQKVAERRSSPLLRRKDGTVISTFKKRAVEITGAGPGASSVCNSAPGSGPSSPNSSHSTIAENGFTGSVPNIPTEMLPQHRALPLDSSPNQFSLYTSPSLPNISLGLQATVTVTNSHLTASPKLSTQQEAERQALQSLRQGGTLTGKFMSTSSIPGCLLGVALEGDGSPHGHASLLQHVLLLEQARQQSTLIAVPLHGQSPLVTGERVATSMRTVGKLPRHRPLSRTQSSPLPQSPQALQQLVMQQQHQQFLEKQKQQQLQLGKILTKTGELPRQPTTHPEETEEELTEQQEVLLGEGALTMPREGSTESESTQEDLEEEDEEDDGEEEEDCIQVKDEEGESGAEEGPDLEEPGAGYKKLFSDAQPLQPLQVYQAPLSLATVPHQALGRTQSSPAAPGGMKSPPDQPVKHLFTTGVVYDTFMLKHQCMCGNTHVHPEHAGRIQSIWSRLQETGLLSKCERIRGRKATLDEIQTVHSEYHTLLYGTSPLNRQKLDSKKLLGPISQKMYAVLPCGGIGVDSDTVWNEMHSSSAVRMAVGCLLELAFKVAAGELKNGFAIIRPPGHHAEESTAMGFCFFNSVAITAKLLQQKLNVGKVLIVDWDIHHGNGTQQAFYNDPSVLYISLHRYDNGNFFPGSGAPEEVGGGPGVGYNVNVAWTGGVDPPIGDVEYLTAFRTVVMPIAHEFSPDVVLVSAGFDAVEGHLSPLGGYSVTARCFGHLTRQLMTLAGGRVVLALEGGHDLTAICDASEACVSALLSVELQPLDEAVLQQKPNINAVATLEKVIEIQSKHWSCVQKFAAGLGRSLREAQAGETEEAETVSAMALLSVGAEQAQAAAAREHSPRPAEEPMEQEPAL
test description: In vitro HDACs inhibition fluorescence assay, HDAC5
Format: biochemical
condition set: mean ± SEM
pIC50: −log10 of the molar value.
measure: pIC50

Measured pIC50 (HDAC5 (Homo sapiens, UniProt Q9UQL6)), entry "CCCCCOCCCCCNNC(=O)c1ccc(CNC(=O)c2ccccc2)cc1" : < 5.00
